Measured protein stability index accompanies every entry in the list below.
B1: EHMT1 (parent)
chain: SARQGELQKVLLMLVDGIDPNFKM

Variants of: B1
Assay: protein stability index of a GFP-peptide fusion (GPS, HEK-293T) (PSI 1-6); higher = more stable;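 further: lentivirally expressed fusions sorted by FACS into six bins by GFP to DsRed ratio, PSI derived from sequencing read proportions per bin multiplied by bin number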
Settings: c terminus: a fixed tail appended
propertyName: protein stability index

sequencevariant=R3A result=1.96
sequencevariant=M24C result=2.05
sequencevariant=S1G result=2.05
sequencevariant=G17C result=2
